test system: Mycobacterium tuberculosis Erdman (autoluminescent); assay: Einf, fitted maximum growth inhibition of three-drug combination (fraction); higher = stronger maximal inhibition; conditions: in vitro model: acidic pH 5.7; time point: constant (~7 days, model-specific)
# Einf per entry
QUANTITY NAME: Einf

COMPOUND: CC(C)/N=c1\cc2n(-c3ccc(Cl)cc3)c3ccccc3nc-2cc1Nc1ccc(Cl)cc1 [clofazimine] + COc1c(N2C[C@@H]3CCCN[C@@H]3C2)c(F)cc2c(=O)c(C(=O)O)cn(C3CC3)c12 [moxifloxacin] + O=[N+]([O-])c1cn2c(n1)OC[C@@H](OCc1ccc(OC(F)(F)F)cc1)C2 [pretomanid]
TARGET OR TEST SYSTEM: Mycobacterium tuberculosis Erdman (autoluminescent)
QUANTITY NAME: Einf
ENDPOINT VALUE: 0.66
--
COMPOUND: CC(C)/N=c1\cc2n(-c3ccc(Cl)cc3)c3ccccc3nc-2cc1Nc1ccc(Cl)cc1 [clofazimine] + O=[N+]([O-])c1cn2c(n1)OC[C@@H](OCc1ccc(OC(F)(F)F)cc1)C2 [pretomanid] + CO[C@H]1/C=C/O[C@@]2(C)Oc3c(C)c(O)c4c(O)c(c(/C=N/N5CCN(C)CC5)c(O)c4c3C2=O)NC(=O)/C(C)=C\C=C\[C@H](C)[C@H](O)[C@@H](C)[C@@H](O)[C@@H](C)[C@H](OC(C)=O)[C@@H]1C [rifampicin]
TARGET OR TEST SYSTEM: Mycobacterium tuberculosis Erdman (autoluminescent)
QUANTITY NAME: Einf
ENDPOINT VALUE: 0.916
--
COMPOUND: NNC(=O)c1ccncc1 [isoniazid] + COc1c(N2C[C@@H]3CCCN[C@@H]3C2)c(F)cc2c(=O)c(C(=O)O)cn(C3CC3)c12 [moxifloxacin] + O=[N+]([O-])c1cn2c(n1)OC[C@@H](OCc1ccc(OC(F)(F)F)cc1)C2 [pretomanid]
TARGET OR TEST SYSTEM: Mycobacterium tuberculosis Erdman (autoluminescent)
QUANTITY NAME: Einf
ENDPOINT VALUE: 0.752
